Source listed as PubChem BioAssay AID1159580.

- protocol summary: chemical genetic growth profiling, strain panel (AID 1159580);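 also: tested at 20 µM; growth read once vehicle control cultures reached saturation at 30 °C; 1 = growth at the plate median or of vehicle wells; lower values mean less growth of the strain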
- experimental setup: S. cerevisiae deletion strains, growth OD, locus YOR316C, strain cot1, hits give low values
Out of some 5,500 compounds screened, about 2,000 (36%) were called active. Inconclusive results (about 18%) are left out. This is one part of the list.
normalized growth for assorted molecules
parameter: normalized growth

>>> print(df.to_string())
                                   molecule  numeric_result
0                  COc1cc(OC)c2ccc(=O)oc2c1           0.998
1                 COc1c2ccoc2cc2oc(=O)ccc12           0.975
2               CNC(=O)Oc1cccc2c1OC(C)(C)O2           0.995
3  COC(=O)[C@]1(C)CCC[C@]2(C)c3ccc(C(C)C)cc3C(=O)CC12 (some centres undefined)           0.998
4  CC[n+]1c(-c2ccccc2)c2cc(N)ccc2c2ccc(N)cc21           0.933
5                          NC(=O)CN1CCCC1=O            1.02
6  NC(CSCSCC(N)C(=O)O)C(=O)O (centres undefined)            0.98
7  CC(=O)Oc1ccc2c(c1OC(C)=O)OCC1(O)Cc3c(cc(OC(C)=O)c(OC(C)=O)c3OC(C)=O)C21 (centres undefined)           0.987
8                 COc1cc2occc2c2oc(=O)ccc12            0.99

* * *

- protocol summary: chemical genetic growth profiling, strain panel (AID 1159580);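 also: tested at 20 µM; growth read once vehicle control cultures reached saturation at 30 °C; 1 = growth at the plate median or of vehicle wells; lower values mean less growth of the strain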
- experimental setup: S. cerevisiae deletion strains, growth OD, locus YOR080W, strain dia2, hits give low values
Screen size: about 5,500 compounds; about 2,000 (36%) were called active. Roughly 18% stayed inconclusive and do not appear here. Some of the results follow.
Entries and their normalized growth values follow.
parameter: normalized growth

In [3]: df
Out[3]:
                                   compound  numeric_result
0  Oc1ccc2c(c1)OCC1(O)Cc3cc(O)c(O)cc3C21 (centres undefined)            1.01
1  COc1cc(OC)c2c(=O)c(OC)c(-c3ccc(OC)c(OC)c3)oc2c1            1.01
2  COc1ccc2c(c1)CCC1C2CCC2(C)C1C[C@@H](O)C2O (some centres undefined)               1
3  C[C@]12CCC3c4ccc(OS(=O)(=O)O)cc4CCC3C1CC[C@H]2O (some centres undefined)            0.96

* * *

- protocol summary: chemical genetic growth profiling, strain panel (AID 1159580);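 also: tested at 20 µM; growth read once vehicle control cultures reached saturation at 30 °C; 1 = growth at the plate median or of vehicle wells; lower values mean less growth of the strain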
- experimental setup: S. cerevisiae deletion strains, growth OD, locus YEL003W, strain gim4, hits give low values
In all, about 5,500 compounds went through this assay and about 2,000 (36%) were called active. Not shown: some 18% with an inconclusive outcome. The list shows a part of the results.
Recorded normalized growth by entry

compound	normalized growth
COc1cc2occc2c2oc(=O)ccc12	0.985
O=c1ccc2c(O)c3ccoc3cc2o1	0.984
COc1cc(OC)c2ccc(=O)oc2c1	0.973
COc1cc(O)c2c(=O)c(O)c(-c3ccc(O)c(O)c3)oc2c1	0.795
COC(=O)[C@]1(C)CCC[C@]2(C)c3ccc(C(C)C)cc3C(=O)CC12 (stereo partly drawn)	0.977
COc1cccc2c(C)cc(=O)[nH]c12	0.971
CC(C)c1c(O)ccc2c1CCC1[C@@](C)(CO)CCC[C@]21C (stereo partly drawn)	1.01
CCCCCCC(C)OC(=O)COc1ccc(Cl)cc1Cl (stereo not drawn)	0.988
C[C@@H]1O[C@@H](OC[C@H]2OC(Oc3c(-c4ccc(OCCO)c(OCCO)c4)oc4cc(OCCO)cc(O)c4c3=O)[C@H](O)[C@@H](O)[C@@H]2O)[C@H](O)[C@H](O)[C@H]1O (stereo partly drawn)	0.968
CNC(=O)Oc1cccc2c1OC(C)(C)O2	0.999
N#Cc1nn(-c2c(Cl)cc(C(F)(F)F)cc2Cl)c(N)c1S(=O)C(F)(F)F (stereo not drawn)	0.936
COc1ccc(-c2cc(=O)c3c(O)cc(O[C@H]4O[C@H](CO[C@@H]5O[C@@H](C)[C@H](O)[C@@H](O)[C@H]5O)[C@@H](O)[C@H](O)[C@H]4O)cc3o2)cc1	1.01
C[C@@H]1CC[C@@]2(OC1)O[C@H]1CC3C4CC[C@H]5C[C@@H](O)CC[C@]5(C)C4CC[C@]3(C)[C@H]1[C@@H]2C (stereo partly drawn)	0.994
